Values were extracted from patent US20260250289A1.

Reported GI50 values are given for each entry in this list.
System: DLD1-WRN-KO cells
assay_remarks: Proliferation assay DLD1-WRN-KO (CellTiterGlo, off-target effects)
Type: cell-based
particulars: 96 hours, geometric mean of at least 2

Worked examples follow.
> print(dat)
                                item.smiles      val
1  CC(=O)N1CCN(c2c(C)n(CC(=O)Nc3c(C)cc(C(F)(F)F)cc3Cl)c3nc(C4=CCOCC4)nn3c2=O)CC1  > 10 µM
2  CC(=O)N1CCN(c2c(C)n(CC(=O)Nc3ccc(C(F)(F)F)cc3)c3nc(-c4ccc(CN(C)C(=O)OC(C)(C)C)cc4)nn3c2=O)CC1  > 10 µM

Next molecule, GI50 to be filled in.
# GI50 (molecule: COC(=O)N1CCN(c2nc3n(CC(=O)Nc4ccc(S(F)(F)(F)(F)F)cc4)c(C)c(N4CCN(C(C)=O)CC4)c(=O)n3n2)CC1 ) is > 10 µM
